Biological target: T1, human SLC34A2 (human, UniProt O95436 1-690)
T1 construct: whole, on cells; also called human solute carrier 34 A2; NaPi2b
T1 sequence (looked up): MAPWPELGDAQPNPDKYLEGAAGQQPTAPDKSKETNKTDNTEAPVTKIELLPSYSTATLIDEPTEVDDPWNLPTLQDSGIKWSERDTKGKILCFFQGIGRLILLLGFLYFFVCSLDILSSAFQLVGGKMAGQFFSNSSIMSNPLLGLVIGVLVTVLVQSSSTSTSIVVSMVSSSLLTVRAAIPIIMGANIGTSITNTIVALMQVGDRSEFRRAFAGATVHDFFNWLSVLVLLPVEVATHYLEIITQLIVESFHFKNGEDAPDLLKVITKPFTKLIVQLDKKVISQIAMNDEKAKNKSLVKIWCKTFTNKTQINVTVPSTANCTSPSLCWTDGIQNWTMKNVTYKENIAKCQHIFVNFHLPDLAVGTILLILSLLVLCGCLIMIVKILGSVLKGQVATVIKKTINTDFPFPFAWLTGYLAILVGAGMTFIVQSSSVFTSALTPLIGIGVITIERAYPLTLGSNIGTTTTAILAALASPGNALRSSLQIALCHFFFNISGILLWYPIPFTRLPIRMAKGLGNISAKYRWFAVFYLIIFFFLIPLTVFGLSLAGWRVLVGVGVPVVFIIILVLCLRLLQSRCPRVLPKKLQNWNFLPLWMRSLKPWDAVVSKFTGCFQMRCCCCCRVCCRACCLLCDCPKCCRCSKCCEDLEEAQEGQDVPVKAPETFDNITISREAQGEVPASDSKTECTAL
Assay: FACS, OVCAR3 cells
ASSAY_ENDPOINT: EC50 (nM)
Please state the figure in nM; there is no need to write the unit.

Consider the binder 91C9F1.p1.z4 hIgG1 (antibody, V domains shown, humanized hIgG1) VH: QVQLVQSGAEVKKPGSSVKVSCKASGFFFTEYIIHWVRQAPGQGLEWMGGIIPNNDVTNYKQNFRGRVTITADESTSTAYMELSSLRSEDTAVYYCARWRNAYYSAMDSWGQGTTVTVSS VL: DIVVTQSPSSLSTSVGDRVTITCTASQDVGTAVAWYQQKPGKSPKLLIYWASTRHTGVPERFTGSGSGTDFTLTISSVQPEDVATYFCQQYRTSPLTFGVGTKLELK and give its measured EC50.
2.71
